- procedure_details: UV-spectrum, absorption maxima
- Format: physicochemical
- cond: at λ-max
reported_endpoint: UV-spectrum logε at λ-max
Just the number, please, no unit attached.

Recorded UV-spectrum logε at λ-max of `O=[N+]([O-])c1ccc(C2OCCCO2)o1` , please. 3.79

Item under review: CC(C)C1OC(c2ccco2)OCC1(C)C (centres unmarked) . Reported UV-spectrum logε at λ-max? 2.35

Which UV-spectrum logε at λ-max is reported for this molecule? CCCC1(C)COC(c2ccc([N+](=O)[O-])o2)OC1 (centres unmarked) 3.98

Which UV-spectrum logε at λ-max value is on record for CC1OC(c2ccco2)OC1C (centres unmarked) ? 2.13

Which UV-spectrum logε at λ-max reading was recorded for the molecule `CC1(C)OC(c2ccc([N+](=O)[O-])o2)OC1(C)C` ? 4.01

Recorded UV-spectrum logε at λ-max of O=[N+]([O-])c1ccc(C2OC3CCCCC3O2)o1 (centres unmarked) , please. 4.01

Fill in: UV-spectrum logε at λ-max of CC1CC(C)(C)OC(c2ccc([N+](=O)[O-])o2)O1 (centres unmarked) is ___ 4.01

Please give the measured UV-spectrum logε at λ-max for this molecule: Cc1ccc(C2OCC(C)(C)C(C(C)C)O2)o1 (centres unmarked) 2.08

May I ask what UV-spectrum logε at λ-max has been recorded for CC1CCOC(c2ccc([N+](=O)[O-])o2)O1 (centres unmarked) ? 3.87

# get_value(readout='UV-spectrum logε at λ-max', item= CC1OC(c2ccc([N+](=O)[O-])o2)OC(C)C1C (centres unmarked) ) 3.76

Would you kindly share the measured UV-spectrum logε at λ-max for `O=[N+]([O-])c1ccc(C2OCCO2)o1` ? 4.02

Returns the measured UV-spectrum logε at λ-max for the input molecule. Input: CC(C)C1OC(c2ccc([N+](=O)[O-])o2)OCC1(C)C (centres unmarked) 4.07

For CC1COC(c2ccc([N+](=O)[O-])o2)O1 (centres unmarked) , what is its reported UV-spectrum logε at λ-max? 3.84

# get_value(readout='UV-spectrum logε at λ-max', item= Cc1ccc(C2OC(C)C(C)O2)o1 (centres unmarked) ) 1.96

---

Exercise: for every item that follows, state its recorded UV-spectrum λ-max.
- procedure_details: UV-spectrum, absorption maxima
- Type: physicochemical
Express your answer in mμ, writing the number without its unit.

What UV-spectrum λ-max value was documented for this compound, Cc1ccc(C2OCC(C)(C)C(C(C)C)O2)o1 (centres unmarked) ? 300

# get_value(readout='UV-spectrum λ-max', item= CC1CC(C)(C)OC(c2ccc([N+](=O)[O-])o2)O1 (centres unmarked) ) 304

Please give the measured UV-spectrum λ-max for this compound: CC(C)C1OC(c2ccc([N+](=O)[O-])o2)OCC1(C)C (centres unmarked) 301

// lookup UV-spectrum λ-max for O=[N+]([O-])c1ccc(C2OC3CCCCC3O2)o1 (centres unmarked) 305

Which UV-spectrum λ-max value belongs to CC1CCOC(c2ccc([N+](=O)[O-])o2)O1 (centres unmarked) ? 303

---

- procedure_details: UV-spectrum, absorption maxima
- Type: physicochemical
reported_endpoint: UV-spectrum λ-max (mμ)
Number in mμ, nothing else.

Could you share which UV-spectrum λ-max value was measured for `O=[N+]([O-])c1ccc(C2OCCO2)o1` ? 302

For the compound Cc1ccc(C2OC(C)C(C)O2)o1 (stereo not drawn) , what UV-spectrum λ-max is on record? 300

Quick one: UV-spectrum λ-max of `CC1(C)OC(c2ccc([N+](=O)[O-])o2)OC1(C)C` ? 303

What measured UV-spectrum λ-max goes with CC(C)C1OC(c2ccco2)OCC1(C)C (stereo not drawn) ? 300

Form field: reported UV-spectrum λ-max of `O=[N+]([O-])c1ccc(C2OCCCO2)o1` 303

Fill in the blank: the reported UV-spectrum λ-max of CC1OC(c2ccc([N+](=O)[O-])o2)OC(C)C1C (stereo not drawn) is ____. 303

Quick one: UV-spectrum λ-max of CC1OC(c2ccco2)OC1C (stereo not drawn) ? 300

Look up UV-spectrum λ-max: CCCC1(C)COC(c2ccc([N+](=O)[O-])o2)OC1 (stereo not drawn) 302

Given the compound CC1COC(c2ccc([N+](=O)[O-])o2)O1 (stereo not drawn) , what is its reported UV-spectrum λ-max? 303

---

- procedure_details: Orienting toxicity test, LD 50
- cond: in vivo
reported_endpoint: LD50 (mg/kg)
Form entry: value (mg/kg) — number only.

Item c1coc(C2OC3CCCCC3O2)c1 (centres unmarked) has what recorded LD50? 300

# get_value(readout='LD50', item= CCCCCCCCC1COC(c2ccc([N+](=O)[O-])o2)O1 (centres unmarked) ) 5000

Using the record for `O=[N+]([O-])c1ccc(C2OCCO2)o1` , report its LD50. 810

Entry under review: Cc1ccc(C2OCC(C)(C)C(C(C)C)O2)o1 (centres unmarked) . Reported LD50? 1000

Which LD50 is listed for CC1CCOC(c2ccc([N+](=O)[O-])o2)O1 (centres unmarked) ? 750

Which measured LD50 value corresponds to Cc1ccc(C2OC(C)C(C)O2)o1 (centres unmarked) ? 1000

Give the measured LD50 of CCCCCCCCCCCCCCC1COC(c2ccc([N+](=O)[O-])o2)O1 (centres unmarked) . 1000

Tell me the measured LD50 of CC1CC(C)(C)OC(c2ccc([N+](=O)[O-])o2)O1 (centres unmarked) , please. 1130

// LD50 lookup, key: CCCCCCCCCCCCC1COC(c2ccc([N+](=O)[O-])o2)O1 (centres unmarked) 1000

Recorded LD50 for O=[N+]([O-])c1ccc(C2OC3CCCCC3O2)o1 (centres unmarked) , please? 1000

Name the reported LD50 value associated with the compound `O=[N+]([O-])c1ccc(C2OCCCCO2)o1` 1750

Given the compound CC(C)C1OC(c2ccco2)OCC1(C)C (centres unmarked) , what is its reported LD50? 300

GET /values?readout=LD50&item= `O=[N+]([O-])c1ccc(C2OCCCO2)o1` 750

Consider the compound CC1COC(c2ccc([N+](=O)[O-])o2)O1 (centres unmarked) and give its measured LD50. 750

Which LD50 is listed for CC(C)C1OC(c2ccc([N+](=O)[O-])o2)OCC1(C)C (centres unmarked) ? 1750

GET /values?readout=LD50&item= CCCCC1COC(c2ccc([N+](=O)[O-])o2)O1 (centres unmarked) 810

Which LD50 is reported for this compound? CC1OC(c2ccco2)OC1C (centres unmarked) 300

Form field: reported LD50 of CCCCCCCCCCCCCCCCC1COC(c2ccc([N+](=O)[O-])o2)O1 (centres unmarked) 2500

Consider the compound CC1OC(c2ccc([N+](=O)[O-])o2)OC(C)C1C (centres unmarked) and give its measured LD50. 690

Which value of LD50 has been reported for CCCC1(C)COC(c2ccc([N+](=O)[O-])o2)OC1 (centres unmarked) in the records? 300

Given CCCCCCCCCCC1COC(c2ccc([N+](=O)[O-])o2)O1 (centres unmarked) , state its recorded LD50. 1000

Could you tell me which LD50 is on file for `CC1(C)OC(c2ccc([N+](=O)[O-])o2)OC1(C)C` ? 810

For CCCCCCC1COC(c2ccc([N+](=O)[O-])o2)O1 (centres unmarked) , what is its reported LD50? 1000

---

- Test system: carrageenin induced edema of the rats paw
- procedure_details: Rat's paw test with carrageenin induced edema (amputation method)
- Assay type: in vivo
- cond: po, 500 mgm/kg p.o., 30 minutes before carrageenin, paws weighed 3 hours after carrageenin, read-out: Rat's paw test with carrageenin induced edema, checking (% inhibition)
Give inhibition in vivo at 500 mg/kg for every item shown.
The reply should be a number in %, with the unit left off.

Which measured inhibition in vivo at 500 mg/kg value corresponds to CC1CCOC(c2ccc([N+](=O)[O-])o2)O1 (stereo not shown) ? 12.1

Query: inhibition in vivo at 500 mg/kg; subject: `O=[N+]([O-])c1ccc(C2OCCCCO2)o1` 12.3

Endpoint output: inhibition in vivo at 500 mg/kg of `CC1(C)OC(c2ccc([N+](=O)[O-])o2)OC1(C)C` . Value? 16.5

GET /values?readout=inhibition in vivo at 500 mg/kg&item= O=[N+]([O-])c1ccc(C2OC3CCCCC3O2)o1 (stereo not shown) 17.7

Entry `O=[N+]([O-])c1ccc(C2OCCCO2)o1` : reported inhibition in vivo at 500 mg/kg = ? 16.9

Need inhibition in vivo at 500 mg/kg, item CC1CC(C)(C)OC(c2ccc([N+](=O)[O-])o2)O1 (stereo not shown) 21.9

# get_value(readout='inhibition in vivo at 500 mg/kg', item= `O=[N+]([O-])c1ccc(C2OCCO2)o1` ) 16.2

Cited source: patent US3987189A
